System: Streptococcus pyogenes SSI-9
TEST_PROTOCOL: Antibacterial activity assay of bead-derived peptides (three concentrations)
Assay type: cell-based
Design: key: +++: inhibition by the 640-fold diluted peptide solution; ++: inhibition by the 160-fold diluted solution; +: inhibition by the 40-fold diluted solution; -: no inhibition
MEASUREMENT_CONTEXT: S. pyogenes, bead-derived peptide solution, three concentrations
Method: Each type of assay must be simplified and miniaturized to assess the activities of the library peptides in a 96-well format for the high-throughput screening. Next, the peptides in groups A and B were subjected to the antibacterial assay and structural determination. Three peptide concentrations were applied to evaluate the growth inhibition of S. pyogenes and determine the antibacterial activity. […] Finally, the structures of the peptides were determined. […]
Where a SMILES comes first, the peptide text is derived from it. [ ]: non-standard residue; d: D form. The star is where a group is joined. NHCH2CH2OH = OCCN*; For = O=C*
ASSAY_METRIC: antibacterial activity

CNC(=O)C[C@@H](NC(=O)[C@@H](NC(=O)[C@@H](CC(C)C)NC(=O)[C@H](C)NC(=O)[C@@H](CC(C)C)NC(=O)[C@H](C)NC(=O)CNC(=O)[C@@H](NC=O)C(C)C)C(C)C)C(=O)N[C@@H](Cc1c[nH]c2ccccc12)C(=O)N[C@@H](C(=O)N[C@@H](Cc1c[nH]c2ccccc12)C(=O)N[C@H](CC(C)C)C(=O)N[C@@H](Cc1c[nH]c2ccccc12)C(=O)N[C@@H](C(=O)N[C@@H](Cc1c[nH]c2ccccc12)C(=O)NCCO)[C@H](C)O)C(C)C [compound 3280] (For-VGA[dL]A[dL]V[dD](NHMe)W[dV]W[dL]W[dT]W-NHCH2CH2OH)
-

----------
Assign viability to each entry below.
MEASUREMENT_CONTEXT: cell viability/%
Where a SMILES comes first, the peptide text is derived from it. [ ]: non-standard residue; d: D form. The star is where a group is joined. NHCH2CH2OH = OCCN*; For = O=C*
Give bare numbers, in %.

# example entries with known answers
CC(C)C[C@@H](NC(=O)[C@H](C)NC(=O)CNC(=O)[C@@H](NC=O)C(C)C)C(=O)N[C@@H](C)C(=O)N[C@@H](C(=O)N[C@H](C(=O)N[C@@H](C(=O)N[C@@H](Cc1c[nH]c2ccccc12)C(=O)N[C@H](CC(C)C)C(=O)N[C@@H](Cc1c[nH]c2ccccc12)C(=O)N[C@H](CC(C)C)C(=O)N[C@@H](Cc1c[nH]c2ccccc12)C(=O)N[C@@H](C(=O)N[C@@H](Cc1c[nH]c2ccccc12)C(=O)NCCO)C(C)C)C(C)C)C(C)C)C(C)C [compound 6345] (For-VGA[dL]A[dV]V[dV]W[dL]W[dL]W[dV]W-NHCH2CH2OH)
57.3
CC(C)C[C@@H](NC(=O)[C@H](C)NC(=O)[C@H](NC(=O)[C@H](C)NC(=O)CNC(=O)[C@@H](NC=O)C(C)C)C(C)C)C(=O)N[C@H](C(=O)N[C@@H](C(=O)N[C@@H](Cc1c[nH]c2ccccc12)C(=O)N[C@H](CC(C)C)C(=O)N[C@@H](Cc1c[nH]c2ccccc12)C(=O)N[C@@H](C(=O)N[C@@H](Cc1c[nH]c2ccccc12)C(=O)N[C@H](CC(C)C)C(=O)N[C@@H](Cc1c[nH]c2ccccc12)C(=O)NCCO)C(C)C)[C@H](C)O)C(C)C [compound 6842] (For-VGA[dV]A[dL]V[dT]W[dL]W[dV]W[dL]W-NHCH2CH2OH)
100
CC(C)C[C@@H](NC(=O)[C@H](C)NC(=O)[C@H](NC(=O)[C@H](C)NC(=O)CNC(=O)[C@@H](NC=O)C(C)C)C(C)C)C(=O)N[C@H](C(=O)N[C@@H](C(=O)N[C@@H](Cc1c[nH]c2ccccc12)C(=O)N[C@@H](C(=O)N[C@@H](Cc1c[nH]c2ccccc12)C(=O)N[C@@H](C(=O)N[C@@H](Cc1c[nH]c2ccccc12)C(=O)N[C@H](CC(C)C)C(=O)N[C@@H](Cc1c[nH]c2ccccc12)C(=O)NCCO)C(C)C)[C@H](C)O)C(C)C)C(C)C [compound 12865] (For-VGA[dV]A[dL]V[dV]W[dT]W[dV]W[dL]W-NHCH2CH2OH)
91.7

Now consider a different compound.
Ask | Quick one: give measured viability for CNC(=O)C[C@@H](NC(=O)[C@H](Cc1c[nH]c2ccccc12)NC(=O)[C@H](NC(=O)[C@H](Cc1c[nH]c2ccccc12)NC(=O)[C@@H](CC(C)C)NC(=O)[C@@H](NC(=O)[C@@H](CC(C)C)NC(=O)[C@H](C)NC(=O)[C@@H](CC(C)C)NC(=O)[C@H](C)NC(=O)CNC(=O)[C@@H](NC=O)C(C)C)C(C)C)C(C)C)C(=O)N[C@@H](Cc1c[nH]c2ccccc12)C(=O)N[C@@H](C(=O)N[C@@H](Cc1c[nH]c2ccccc12)C(=O)NCCO)[C@H](C)O [compound 3885] (For-VGA[dL]A[dL]V[dL]W[dV]W[dD](NHMe)W[dT]W-NHCH2CH2OH)
Reply | 100
